Tested on: Saccharomyces cerevisiae;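 note: PSI is a weighted mean of sequencing reads over stability bins, variants kept only with over 10 reads, mCherry proximal and sfGFP distal, peptide attached via GGGS linker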
assay-overview: protein stability index of tFT-peptide fusion (C-terminal peptide) (PSI (0-1 scale)); higher = more stable (slower turnover)
applied-conditions: genetic background: wild type; temperature: 37 C
Binary classification by protein stability index, with 0.5 as an inclusive lower bound for class 1; all other cases are class 0.

CSLFYVFYRRLL class 1
SLASPPPLLILR class 0

[in] Quick check: does "RLSTTTTKQFIH" have protein stability index greater than or equal to 0.5?
[out] class 1

[in] Ok, now "VFSCFLFLVVLV"
[out] class 0

[in] Ok, now "YVSSCLLWLCFV"
[out] class 0

[in] Ok, now "VPSPWLIRSLMS"
[out] class 1

[in] Ok, now "VSLCVVYGLVVG"
[out] class 0

[in] Ok, now "GGRLGRAGGGGR"
[out] class 1

[in] Ok, now "GCFVDRVYVVVV"
[out] class 1

[in] Ok, now "LLGSRFVLIRSL"
[out] class 0

[in] Ok, now "VVFVGRSIVVLT"
[out] class 1

[in] Ok, now "AFKRVFWALWWM"
[out] class 0

[in] Ok, now "GQFVISVRFLYE"
[out] class 1

[in] Ok, now "IFRVTGFPIYIF"
[out] class 0

[in] Ok, now "WFSAGSCRWVLC"
[out] class 0

[in] Ok, now "CLWNFWVRFLLL"
[out] class 0

[in] Ok, now "SQIALIQYFHIL"
[out] class 0

[in] Ok, now "LCSLSIFVLFSC"
[out] class 0

[in] Ok, now "VCRGWCVVRYIL"
[out] class 0

[in] Ok, now "VRWALLGVVVEG"
[out] class 0

[in] Ok, now "LCHILAIIRRGA"
[out] class 1

[in] Ok, now "FVSFFRWLLVSI"
[out] class 0

[in] Ok, now "WFFLFGFVFFFR"
[out] class 0

[in] Ok, now "ATLWVWCFSSHV"
[out] class 1

[in] Ok, now "LCLRCQCIGTLS"
[out] class 1

[in] Ok, now "VCVFNLTLVGTH"
[out] class 0

[in] Ok, now "LSFYLRAVRASL"
[out] class 1

[in] Ok, now "PPPPPPPSSSSL"
[out] class 1

[in] Ok, now "PPIPTPSPIPLH"
[out] class 1

[in] Ok, now "PLRRPSWVVLSS"
[out] class 1
